Assignment: determine reported EC50 for the given compounds.
target: F508delCFTR cell surface expression in CFBE41o-F508delCFTR-HRP cells (Homo sapiens, UniProt P13569, DEL508-508); construct: fused on or other part: Horseradish peroxidase (HRP) reporter inserted in the fourth exofacial (extracellular) loop of CFTR; expression is doxycycline-inducible; assay: Cell Surface Expression-Horse Radish Peroxidase (CSE-HRP) Assay; settings: CFBE41o-F508delCFTR-HRP cells, 18-24 hours at 33° C., 8-point curve, highest concentration 20 μM
Sequence (P13569 with tags, fused parts or gaps DEL508-508 limits assumed): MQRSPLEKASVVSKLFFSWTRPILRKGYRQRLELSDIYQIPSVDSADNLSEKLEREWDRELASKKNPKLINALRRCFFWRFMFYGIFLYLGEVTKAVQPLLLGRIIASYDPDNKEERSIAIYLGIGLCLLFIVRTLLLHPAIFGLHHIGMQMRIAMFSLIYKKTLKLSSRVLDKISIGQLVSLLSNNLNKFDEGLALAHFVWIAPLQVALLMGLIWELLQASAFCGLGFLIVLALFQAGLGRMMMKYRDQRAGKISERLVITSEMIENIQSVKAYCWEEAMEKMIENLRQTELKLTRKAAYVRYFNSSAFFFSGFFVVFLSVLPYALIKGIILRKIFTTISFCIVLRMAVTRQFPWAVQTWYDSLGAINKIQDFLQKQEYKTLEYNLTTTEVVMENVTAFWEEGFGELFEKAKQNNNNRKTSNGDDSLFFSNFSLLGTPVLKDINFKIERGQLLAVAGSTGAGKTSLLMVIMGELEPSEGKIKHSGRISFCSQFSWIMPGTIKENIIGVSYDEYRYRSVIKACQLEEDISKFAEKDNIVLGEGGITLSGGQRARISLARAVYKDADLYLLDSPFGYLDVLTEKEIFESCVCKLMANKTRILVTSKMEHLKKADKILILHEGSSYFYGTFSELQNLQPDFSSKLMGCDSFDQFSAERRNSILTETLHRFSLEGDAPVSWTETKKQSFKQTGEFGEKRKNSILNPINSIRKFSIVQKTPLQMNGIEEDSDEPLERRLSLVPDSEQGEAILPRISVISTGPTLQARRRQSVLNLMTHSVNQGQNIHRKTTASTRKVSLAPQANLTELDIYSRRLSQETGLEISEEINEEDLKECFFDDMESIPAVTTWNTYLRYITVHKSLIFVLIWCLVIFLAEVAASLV
Sequence (P13569 919-1480 limits assumed, stated change not applied): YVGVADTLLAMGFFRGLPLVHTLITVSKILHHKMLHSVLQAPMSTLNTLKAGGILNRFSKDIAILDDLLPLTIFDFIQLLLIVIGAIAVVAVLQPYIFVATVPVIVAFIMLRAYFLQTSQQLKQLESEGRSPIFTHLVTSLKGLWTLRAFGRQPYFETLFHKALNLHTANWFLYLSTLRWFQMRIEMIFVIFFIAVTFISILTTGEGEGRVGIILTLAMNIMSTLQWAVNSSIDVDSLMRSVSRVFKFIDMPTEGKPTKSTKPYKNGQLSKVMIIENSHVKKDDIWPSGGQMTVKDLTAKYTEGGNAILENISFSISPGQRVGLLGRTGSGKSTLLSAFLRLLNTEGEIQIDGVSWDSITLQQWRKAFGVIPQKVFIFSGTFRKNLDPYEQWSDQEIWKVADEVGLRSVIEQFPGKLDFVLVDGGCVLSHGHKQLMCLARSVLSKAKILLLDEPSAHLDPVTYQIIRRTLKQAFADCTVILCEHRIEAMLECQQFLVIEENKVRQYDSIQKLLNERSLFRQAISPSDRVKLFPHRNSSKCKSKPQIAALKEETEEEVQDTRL
Field: numeric (nM). Do not append units.

For the compound shown here, CC1(C)OC[C@H]([C@H](O)Cn2nc(-c3ccccc3)cc(NC(=O)[C@@]3(C)COc4cc5c(cc43)OC(F)(F)O5)c2=O)O1 , give the reported EC50.
14100

For the compound shown here, Cc1cc(NC(=O)[C@@]2(C)COc3cc4c(cc32)OC(F)(F)O4)nc(-c2cccc(C(=O)O)c2)c1 , give the reported EC50.
1720

For the compound shown here, COc1ccc2c(c1)O[C@@H](c1ccc(C(=O)N3C[C@H](O)[C@@H](O)C3)cn1)C[C@H]2NC(=O)[C@@]1(C)COc2cc3c(cc21)OC(F)(F)O3 , give the reported EC50.
100

---

target: F508delCFTR cell surface expression in CFBE41o-F508delCFTR-HRP cells (Homo sapiens, UniProt P13569, DEL508-508); construct: fused on or other part: Horseradish peroxidase (HRP) reporter inserted in the fourth exofacial (extracellular) loop of CFTR; expression is doxycycline-inducible; assay: Cell Surface Expression-Horse Radish Peroxidase (CSE-HRP) Assay; format: cell-based; details: maximum at any tested concentration, normalized to on-plate positive control (3 μM)
Decision: Maximum % activity (%) >= 60% yields true (1), all other cases yield false (0).

Does the reported Maximum % activity (%) for COc1ccc2c(c1)O[C@@H](c1ccc(C(=O)NC(C)CC(N)=O)cn1)C[C@H]2NC(=O)[C@@]1(C)COc2cc3c(cc21)OC(F)(F)O3 (stereo partly drawn) fall at or above the 60% mark?
true (1)

Does the reported Maximum % activity (%) for COc1ccc2c(c1)O[C@@H](c1ccc(C(=O)O)cn1)C[C@H]2NC(=O)[C@@]1(C)COc2cc3c(cc21)OC(F)(F)O3 fall at or above the 60% mark?
true (1)

Does the reported Maximum % activity (%) for COc1ccc2c(c1)O[C@@H](c1cnc(N3C[C@@H](O)[C@H](O)C3)cn1)C[C@H]2NC(=O)[C@@]1(C)COc2cc3c(cc21)OC(F)(F)O3 fall at or above the 60% mark?
true (1)

Does the reported Maximum % activity (%) for COc1ccc2c(c1)O[C@H](COC[C@H](O)CO)C[C@@H]2NC(=O)[C@@]1(C)COc2cc3c(cc21)OC(F)(F)O3 fall at or above the 60% mark?
false (0)

Does the reported Maximum % activity (%) for COC(=O)c1cccc([C@H]2C[C@@H](NC(=O)[C@]3(C)COc4cc5c(cc43)OC(F)(F)O5)c3ccc(OC)cc3O2)c1 fall at or above the 60% mark?
false (0)

Does the reported Maximum % activity (%) for COc1ccc2c(c1)O[C@@H](c1ccc(C(=O)N3CCOC(CO)C3)cn1)C[C@H]2NC(=O)[C@@]1(C)COc2cc3c(cc21)OC(F)(F)O3 (stereo partly drawn) fall at or above the 60% mark?
true (1)

Does the reported Maximum % activity (%) for CCOC(=O)[C@H]1CC[C@H]([C@H]2C[C@@H](NC(=O)[C@@]3(C)COc4cc5c(cc43)OC(F)(F)O5)c3ccc(OC(F)(F)F)cc3O2)CC1 fall at or above the 60% mark?
true (1)

Does the reported Maximum % activity (%) for C[C@]1(C(=O)N[C@@H]2C[C@H](C3CCNCC3)Oc3cc(OC(F)(F)F)ccc32)COc2cc3c(cc21)OC(F)(F)O3 fall at or above the 60% mark?
true (1)

Does the reported Maximum % activity (%) for C[C@]1(C(=O)N[C@H]2C[C@@H](C3CCN(C[C@H](O)CO)CC3)Oc3cc(OC(F)(F)F)ccc32)COc2cc3c(cc21)OC(F)(F)O3 fall at or above the 60% mark?
false (0)

Does the reported Maximum % activity (%) for CCOC(=O)[C@H]1CC[C@H]([C@H]2C[C@@H](NC(=O)[C@@]3(C)COc4cc5c(cc43)OC(F)(F)O5)c3ccc(OC(F)F)cc3O2)CC1 fall at or above the 60% mark?
true (1)

Does the reported Maximum % activity (%) for C[C@]1(C(=O)N[C@@H]2C[C@H](C3(C(=O)N(CCO)CCO)CC3)Oc3cc(OC(F)(F)F)ccc32)COc2cc3c(cc21)OC(F)(F)O3 fall at or above the 60% mark?
true (1)

---

molecular target: F508delCFTR cell surface expression in CFBE41o-F508delCFTR-HRP cells (Homo sapiens, UniProt P13569, DEL508-508); construct: fused on or other part: Horseradish peroxidase (HRP) reporter inserted in the fourth exofacial (extracellular) loop of CFTR; expression is doxycycline-inducible; experiment: Cell Surface Expression-Horse Radish Peroxidase (CSE-HRP) Assay; conditions: CFBE41o-F508delCFTR-HRP cells, 18-24 hours at 33° C., 8-point curve, highest concentration 20 μM
assay.readout: EC50 (nM)
Field: numeric (nM). Do not append units.

For the compound shown here, COc1ccc2c(c1)O[C@@H](c1ccc(C(=O)N3CCN(S(N)(=O)=O)CC3)cn1)C[C@H]2NC(=O)[C@@]1(C)COc2cc3c(cc21)OC(F)(F)O3 , give the reported EC50.
50

For the compound shown here, C[C@]1(C(=O)Nc2cccc(N3CC[C@H](O)C3)n2)COc2cc3c(cc21)OC(F)(F)O3 , give the reported EC50.
730

For the compound shown here, COc1ccc2c(c1)O[C@@H](COCc1ccccc1)C[C@H]2NC(=O)[C@@]1(C)COc2cc3c(cc21)OC(F)(F)O3 , give the reported EC50.
700

---

Assignment: determine reported Maximum % activity (%) for the given molecules.
target: F508delCFTR in primary hBE cells with F508del/F508del CFTR mutation (Homo sapiens, UniProt P13569, DEL508-508); construct: cells isolated from CF patients with the homozygous mutation; endogenous in cells; host or cells: primary human bronchial epithelial (hBE) cells from F508del/F508del CF patients; test: Transepithelial Clamp Circuit on Human Bronchial Epithelial Cells Conductance Assay (hBE-TECC); format: cell-based; conditions: relative to positive control (3 μM) coupled with control potentiator
Sequence (P13569 with tags, fused parts or gaps DEL508-508): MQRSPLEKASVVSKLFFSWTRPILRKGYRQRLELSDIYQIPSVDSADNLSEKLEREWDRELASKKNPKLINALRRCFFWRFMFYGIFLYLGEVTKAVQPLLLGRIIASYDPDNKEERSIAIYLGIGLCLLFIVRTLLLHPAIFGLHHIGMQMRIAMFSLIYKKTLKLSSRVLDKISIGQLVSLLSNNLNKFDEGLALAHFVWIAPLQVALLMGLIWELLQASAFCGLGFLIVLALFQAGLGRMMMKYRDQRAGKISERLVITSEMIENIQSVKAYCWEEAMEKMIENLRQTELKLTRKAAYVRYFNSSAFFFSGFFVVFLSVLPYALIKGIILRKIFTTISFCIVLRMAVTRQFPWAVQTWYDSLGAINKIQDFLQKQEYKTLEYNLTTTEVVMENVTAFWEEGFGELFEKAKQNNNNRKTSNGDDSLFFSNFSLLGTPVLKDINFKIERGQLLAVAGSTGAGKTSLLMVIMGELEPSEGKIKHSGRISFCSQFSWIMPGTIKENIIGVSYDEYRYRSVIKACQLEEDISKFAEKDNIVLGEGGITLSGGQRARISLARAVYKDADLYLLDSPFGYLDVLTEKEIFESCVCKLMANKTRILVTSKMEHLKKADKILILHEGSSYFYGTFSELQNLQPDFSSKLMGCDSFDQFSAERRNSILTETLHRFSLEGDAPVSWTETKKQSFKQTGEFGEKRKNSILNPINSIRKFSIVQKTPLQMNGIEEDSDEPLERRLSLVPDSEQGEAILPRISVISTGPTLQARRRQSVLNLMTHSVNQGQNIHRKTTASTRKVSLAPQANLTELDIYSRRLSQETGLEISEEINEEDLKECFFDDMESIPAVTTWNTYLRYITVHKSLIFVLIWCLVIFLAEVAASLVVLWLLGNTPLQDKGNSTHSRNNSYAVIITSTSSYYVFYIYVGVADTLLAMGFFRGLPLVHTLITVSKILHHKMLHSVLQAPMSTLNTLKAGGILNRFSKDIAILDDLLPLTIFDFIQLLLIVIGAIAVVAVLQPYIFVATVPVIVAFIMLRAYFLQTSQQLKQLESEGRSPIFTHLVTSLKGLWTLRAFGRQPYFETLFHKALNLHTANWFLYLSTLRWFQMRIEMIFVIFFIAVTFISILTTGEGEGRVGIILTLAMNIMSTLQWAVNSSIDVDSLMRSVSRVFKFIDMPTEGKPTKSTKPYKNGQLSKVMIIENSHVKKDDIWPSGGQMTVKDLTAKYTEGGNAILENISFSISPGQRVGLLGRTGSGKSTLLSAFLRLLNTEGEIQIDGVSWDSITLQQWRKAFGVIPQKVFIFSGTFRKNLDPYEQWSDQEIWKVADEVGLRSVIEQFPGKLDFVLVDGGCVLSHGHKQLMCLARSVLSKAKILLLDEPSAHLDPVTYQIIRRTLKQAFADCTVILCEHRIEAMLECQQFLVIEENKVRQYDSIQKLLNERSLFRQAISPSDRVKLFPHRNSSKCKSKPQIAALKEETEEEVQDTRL
Field: numeric (%). Do not append units.

For the molecule shown here, C[C@]1(C(=O)N[C@@H]2C[C@H](C3(C(=O)O)CC3)Oc3cc(OC(F)(F)F)ccc32)COc2cc3c(cc21)OC(F)(F)O3 , give the reported Maximum % activity (%).
84

For the molecule shown here, C[C@]1(C(=O)N[C@@H]2C[C@H](c3ccc(C(=O)O)cn3)Oc3cc(OC(F)(F)F)ccc32)COc2cc3c(cc21)OC(F)(F)O3 , give the reported Maximum % activity (%).
91

For the molecule shown here, CCCN(CCO)C(=O)[C@H]1CC[C@H]([C@H]2C[C@@H](NC(=O)[C@@]3(C)COc4cc5c(cc43)OC(F)(F)O5)c3ccc(OC(F)(F)F)cc3O2)CC1 , give the reported Maximum % activity (%).
118

---

molecular target: F508delCFTR cell surface expression in CFBE41o-F508delCFTR-HRP cells (Homo sapiens, UniProt P13569, DEL508-508); construct: fused on or other part: Horseradish peroxidase (HRP) reporter inserted in the fourth exofacial (extracellular) loop of CFTR; expression is doxycycline-inducible; assay: Cell Surface Expression-Horse Radish Peroxidase (CSE-HRP) Assay; format: cell-based; conditions: maximum at any tested concentration, normalized to on-plate positive control (3 μM)
assay.readout: Maximum % activity (%)
Field: numeric (%). Do not append units.

For the compound shown here, C[C@]1(C(=O)N[C@@H]2C[C@H]([C@H]3CC[C@H](C(=O)O)CC3)Oc3cc(OC(F)(F)F)ccc32)COc2cc3c(cc21)OC(F)(F)O3 , give the reported Maximum % activity (%).
145

For the compound shown here, COc1ccc2c(c1)O[C@@H](c1ccc(C(=O)O)nc1)C[C@H]2NC(=O)[C@@]1(C)COc2cc3c(cc21)OC(F)(F)O3 , give the reported Maximum % activity (%).
153

For the compound shown here, C[C@]1(C(=O)Nc2cccc(-c3ccc(C(=O)O)cc3)n2)COc2cc3c(cc21)OC(F)(F)O3 , give the reported Maximum % activity (%).
200

For the compound shown here, COc1ccc2c(c1)O[C@@H](c1cnc(CO)cn1)C[C@H]2NC(=O)[C@@]1(C)COc2cc3c(cc21)OC(F)(F)O3 , give the reported Maximum % activity (%).
132

For the compound shown here, CCOC(=O)[C@H]1CC[C@H]([C@H]2C[C@@H](NC(=O)[C@@]3(C)COc4cc5c(cc43)OC(F)(F)O5)c3ccc(OC)cc3O2)CC1 , give the reported Maximum % activity (%).
135

For the compound shown here, CC(C)(CO)NC(=O)[C@H]1CC[C@H]([C@H]2C[C@@H](NC(=O)[C@@]3(C)COc4cc5c(cc43)OC(F)(F)O5)c3ccc(OC(F)(F)F)cc3O2)CC1 , give the reported Maximum % activity (%).
186

For the compound shown here, Cc1ccc(NC(=O)C2(C)COc3cc4c(cc32)OC(F)(F)O4)cc1-c1cccc(C(=O)O)c1 (stereo not shown) , give the reported Maximum % activity (%).
152

For the compound shown here, COc1ccc2c(c1)O[C@@H](CO)C[C@H]2NC(=O)[C@@]1(C)COc2cc3c(cc21)OC(F)(F)O3 , give the reported Maximum % activity (%).
110

For the compound shown here, C[C@]1(C(=O)N[C@H]2C[C@@H](c3ccccc3)O[C@@H](c3ccc(C(=O)O)cc3)C2)COc2cc3c(cc21)OC(F)(F)O3 (single isomer, unassigned) , give the reported Maximum % activity (%).
114

For the compound shown here, COc1ccc2c(c1)O[C@@H](c1ccc(C(=O)NC[C@H]3C[C@H](O)C3)cn1)C[C@H]2NC(=O)[C@@]1(C)COc2cc3c(cc21)OC(F)(F)O3 , give the reported Maximum % activity (%).
107

For the compound shown here, COc1ccc2c(c1)O[C@@H](c1nnnn1Cc1ccccc1)C[C@H]2NC(=O)[C@@]1(C)COc2cc3c(cc21)OC(F)(F)O3 , give the reported Maximum % activity (%).
95

For the compound shown here, C[C@]1(C(=O)Nc2cc3cc(C4(CO)COC4)n(C[C@@H](O)CO)c3cc2F)COc2cc3c(cc21)OC(F)(F)O3 , give the reported Maximum % activity (%).
58

For the compound shown here, COC(=O)c1ccc(-c2csc(NC(=O)C3(C)COc4cc5c(cc43)OC(F)(F)O5)n2)cc1 (stereo not shown) , give the reported Maximum % activity (%).
46

Data origin: patent US9840513B2
